- procedure.summary: Repeated oral dosing (5 mg/kg every 12 h, six doses) plasma trough concentrations in koalas
- Type: in vivo
- condition.summary: both sexes, koala (Phascolarctos cinereus), plasma, arithmetic mean, six koalas, 48 h, 5 mg/kg oral every 12 h, read-out: Firocoxib plasma trough concentration
outcome.measure: concentration at 48 h
Could you write the number and then its unit?

Name the reported concentration at 48 h value associated with the molecule CC1(C)OC(=O)C(OCC2CC2)=C1c1ccc(S(C)(=O)=O)cc1
47.4 ng/mL

----------
- procedure.summary: Single oral dose (5 mg/kg) pharmacokinetics of firocoxib in koalas, plasma HPLC, non-compartmental analysis
- condition.summary: both, plasma, po, 5 mg/kg, Cmax, harmonic mean, n = 6 koalas; single oral 5 mg/kg
outcome.measure: Cmax (µg/mL)
# unit: µg/mL | format: bare number

Can you share its Cmax? I mean this molecule: CC1(C)OC(=O)C(OCC2CC2)=C1c1ccc(S(C)(=O)=O)cc1
0.0792

----------
- procedure.summary: Repeated oral dosing (5 mg/kg every 12 h, six doses) plasma trough concentrations in koalas
- Format: in vivo
- condition.summary: female, koala (Phascolarctos cinereus), plasma, harmonic mean, females, 48 h, 5 mg/kg oral every 12 h, read-out: Firocoxib trough plasma concentration
outcome.measure: concentration at 48 h (ng/mL)
// note: answer is a bare numeric in ng/mL

// returns reported concentration at 48 h for input CC1(C)OC(=O)C(OCC2CC2)=C1c1ccc(S(C)(=O)=O)cc1 [firocoxib]
51.6

----------
- procedure.summary: Single oral dose (5 mg/kg) pharmacokinetics of firocoxib in koalas, plasma HPLC, non-compartmental analysis
- condition.summary: female, plasma, po, 5 mg/kg, ke (elimination constant), K4 female; single oral 5 mg/kg; slope from 8, 12, 24 h
outcome.measure: k el (s⁻¹)
Give your result in s⁻¹ as a bare value.

Give the measured k el of CC1(C)OC(=O)C(OCC2CC2)=C1c1ccc(S(C)(=O)=O)cc1 .
5.28e-05

----------
- procedure.summary: Repeated oral dosing (5 mg/kg every 12 h, six doses) plasma trough concentrations in koalas
- Type: in vivo
- condition.summary: female, koala (Phascolarctos cinereus), plasma, mean, females, 24 h, 5 mg/kg oral every 12 h, read-out: Firocoxib trough plasma concentration
outcome.measure: concentration at 24 h (ng/mL)
Provide only the numeric value, understood in ng/mL.

// concentration at 24 h lookup, key: CC1(C)OC(=O)C(OCC2CC2)=C1c1ccc(S(C)(=O)=O)cc1
76.5

----------
- procedure.summary: Single oral dose (5 mg/kg) pharmacokinetics of firocoxib in koalas, plasma HPLC, non-compartmental analysis;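 further: healthy adult koalas, three per sex, anaesthetised the day before dosing for cephalic vein catheterisation, with serial blood draws and firocoxib in plasma quantified by HPLC using fluorescence detection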
- condition.summary: male, koala, plasma, po, 5 mg/kg, Firocoxib plasma concentration, K2 male; 0.5 h; single oral 5 mg/kg
outcome.measure: concentration at 0.5 h (ng/mL)
Numbers only; they are read as ng/mL.

Fill in: concentration at 0.5 h of CC1(C)OC(=O)C(OCC2CC2)=C1c1ccc(S(C)(=O)=O)cc1 is ___
10

----------
- procedure.summary: Repeated oral dosing (5 mg/kg every 12 h, six doses) plasma trough concentrations in koalas
- Format: in vivo
- condition.summary: both sexes, koala (Phascolarctos cinereus), plasma, harmonic mean, six koalas, 48 h, 5 mg/kg oral every 12 h, read-out: Firocoxib plasma trough concentration
outcome.measure: concentration at 48 h (ng/mL)
Give the number; ng/mL is assumed, so skip it.

// concentration at 48 h lookup, key: CC1(C)OC(=O)C(OCC2CC2)=C1c1ccc(S(C)(=O)=O)cc1
33.2
